Measurement notes: melting temperature; melt of duplexes
Assay setup: sodium 0.0675 M; strand 1 µM
Quick reference: Tm of the listed items.

[
  {
    "Substance": "CGACGTGCGGTATGTGCTG+CAGCACATGCTGCACGTCG ((((((((.(.((((((((+)))))))).).))))))))",
    "Tm, °C": 56.1
  },
  {
    "Substance": "CGACGTGCCAGATGTGCTG+CAGCACATATGGCACGTCG ((((((((((.((((((((+)))))))).))))))))))",
    "Tm, °C": 59.9
  },
  {
    "Substance": "CGACGTGCCATATGTGCTG+CAGCACATCCCGCACGTCG ((((((((...((((((((+))))))))...))))))))",
    "Tm, °C": 46.9
  },
  {
    "Substance": "CGACGTGCTCGATGTGCTG+CAGCACATTGCGCACGTCG ((((((((.(.((((((((+)))))))).).))))))))",
    "Tm, °C": 52.4
  },
  {
    "Substance": "CGACGTGCCATATGTGCTG+CAGCACATTTTGCACGTCG ((((((((.(.((((((((+)))))))).).))))))))",
    "Tm, °C": 49.6
  },
  {
    "Substance": "CGACGTGCGACATGTGCTG+CAGCACATCCAGCACGTCG ((((((((...((((((((+))))))))...))))))))",
    "Tm, °C": 50.4
  },
  {
    "Substance": "CGACGTGCGATATGTGCTG+CAGCACATTCTGCACGTCG ((((((((...((((((((+))))))))...))))))))",
    "Tm, °C": 51.5
  }
]
